Give measured log10 Koc (L/kg) for each item. Keep answers brief.
Respond using a number only.

Enquiry: Any idea what log10 Koc (L/kg) was measured for `NC(=O)Cc1cccc2ccccc12` ?
Return: 2

Enquiry: Any idea what log10 Koc (L/kg) was measured for `Nc1ccc(Br)cc1` ?
Return: 1.96

Enquiry: Any idea what log10 Koc (L/kg) was measured for `CCCCc1c(C)nc(N(C)C)nc1O` ?
Return: 1.95

Enquiry: Any idea what log10 Koc (L/kg) was measured for `CC(Cl)(Cl)Cl` ?
Return: 1.95

* * *

Criterion: melting point strictly less than 50 °C. Met: Condition met. Not met: Condition not met.

Enquiry: Is 50 °C strictly greater than the compound's reported melting point? compound: `Cc1ccc(OP(=O)(Oc2ccc(C)c(C)c2)Oc2ccc(C)c(C)c2)cc1C`
Return: Condition not met

Enquiry: Is 50 °C strictly greater than the compound's reported melting point? compound: `Cc1ccc(Cl)c(O)c1Cl`
Return: Condition met

Enquiry: Is 50 °C strictly greater than the compound's reported melting point? compound: `CC(=O)c1cc2ccccc2o1`
Return: Condition not met

Enquiry: Is 50 °C strictly greater than the compound's reported melting point? compound: `O=C1CCCN1`
Return: Condition met

Enquiry: Is 50 °C strictly greater than the compound's reported melting point? compound: `CC(C)(C(N)=O)n1nc2ccccc2n1`
Return: Condition not met

Enquiry: Is 50 °C strictly greater than the compound's reported melting point? compound: `O=C(O)CC(CC(=O)O)C(=O)O`
Return: Condition not met

Enquiry: Is 50 °C strictly greater than the compound's reported melting point? compound: `CC(=O)OC(OC(C)=O)c1ccccc1`
Return: Condition met

Enquiry: Is 50 °C strictly greater than the compound's reported melting point? compound: `CCCCCCCCCCCCO`
Return: Condition met

Enquiry: Is 50 °C strictly greater than the compound's reported melting point? compound: `OCCN1CCN(CCCN2c3ccccc3Sc3ccc(Cl)cc32)CC1`
Return: Condition not met

Enquiry: Is 50 °C strictly greater than the compound's reported melting point? compound: `Nc1cccc2cnccc12`
Return: Condition not met

Enquiry: Is 50 °C strictly greater than the compound's reported melting point? compound: `Cc1cccc(N)c1`
Return: Condition met

Enquiry: Is 50 °C strictly greater than the compound's reported melting point? compound: `O=C(Cl)c1ccc(F)cc1`
Return: Condition met

Enquiry: Is 50 °C strictly greater than the compound's reported melting point? compound: `O=C1CCCC(=O)N1`
Return: Condition not met

Enquiry: Is 50 °C strictly greater than the compound's reported melting point? compound: `NS(=O)(=O)c1ccc(S(=O)(=O)CCCCO)cc1`
Return: Condition not met

Enquiry: Is 50 °C strictly greater than the compound's reported melting point? compound: `Nc1c(Cl)cccc1Cl`
Return: Condition met

Enquiry: Is 50 °C strictly greater than the compound's reported melting point? compound: `CC(=O)Oc1ccc(C(=C2CCCCC2)c2ccc(OC(C)=O)cc2)cc1`
Return: Condition not met

Enquiry: Is 50 °C strictly greater than the compound's reported melting point? compound: `COc1cc(OC)nc(Oc2cccc(Oc3nc(OC)cc(OC)n3)c2C(=O)ON=C(c2ccccc2)c2ccccc2)n1`
Return: Condition not met

Enquiry: Is 50 °C strictly greater than the compound's reported melting point? compound: `COP(=S)(OC)Oc1nc(Cl)c(Cl)cc1Cl`
Return: Condition met

Provenance of the data: the OPERA property sets (Mansouri et al. 2018)
